Assayed System: Voltage-gated potassium channel subunit beta-2 (Rattus norvegicus)
Measurement Description: KvBeta positive modulators, primary screen, biochemical, NADPH fluorescence (AID 623);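 further: fluorescence intensity change per second fitted from 20 to 320 s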
Condition Context: Recombinant KvBeta, NADPH fluorescence decrease slope, 10 min; at 10 µM; stronger effect = lower value
Property Measured: NADPH fluorescence slope
Form field (numeric): enter value without unit.

QUERY: Please report the measured NADPH fluorescence slope for CCOC(=O)c1[nH]c2ccc(OC)cc2c1NC(=O)CCN1CCC(C)CC1
RESULT: -3.9e-05

Further cases:
QUERY: Supply recorded NADPH fluorescence slope for NS(=O)(=O)c1cc2c(cc1Cl)NC=NS2(=O)=O here.
RESULT: -0.000201

QUERY: Read off the recorded NADPH fluorescence slope for CCN(CCCc1ccccc1)CCCc1ccccc1
RESULT: -3.6e-06

QUERY: Retrieve NADPH fluorescence slope measured for Fc1ccccc1-c1nc(N2CCCCC2)c2ccccc2n1 and print it.
RESULT: -5.7e-06

QUERY: Give reported NADPH fluorescence slope value for COc1ccc2[nH]c(C)c(C(=O)CN3CCc4cc(OC)c(OC)cc4C3)c2c1
RESULT: -2e-05

QUERY: State its NADPH fluorescence slope for this compound: Cc1cc(=O)oc(C)c1C(=O)N1CCN(Cc2ccc3c(c2)OCO3)CC1
RESULT: -0.000128

QUERY: // Input: Oc1c(C=NCc2ccncc2)sc2ccccc12 . Output its NADPH fluorescence slope only.
RESULT: -6.8e-05

---

Assayed System: Alpha-2C adrenergic receptor (Homo sapiens) (UniProt P18825)
Sequence (P18825 whole entry, looked up): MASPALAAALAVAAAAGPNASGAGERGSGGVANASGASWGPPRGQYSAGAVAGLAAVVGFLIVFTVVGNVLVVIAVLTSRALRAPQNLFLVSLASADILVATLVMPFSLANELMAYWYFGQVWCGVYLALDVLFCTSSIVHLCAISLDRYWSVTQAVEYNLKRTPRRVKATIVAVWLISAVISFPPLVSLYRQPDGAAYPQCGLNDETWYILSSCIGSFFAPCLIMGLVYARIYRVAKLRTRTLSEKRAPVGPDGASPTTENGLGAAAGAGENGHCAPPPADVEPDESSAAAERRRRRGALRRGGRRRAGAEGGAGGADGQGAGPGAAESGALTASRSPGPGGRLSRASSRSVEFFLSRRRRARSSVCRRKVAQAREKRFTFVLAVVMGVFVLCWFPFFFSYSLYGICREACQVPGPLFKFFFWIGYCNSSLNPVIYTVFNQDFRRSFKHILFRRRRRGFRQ
Measurement Description: modulators of alpha2C/GIRK thallium flux, primary screen, cell-based, HEK293 alpha2C/GIRK1/2 (AID 624);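 further: slope of fluorescence ratio to pre-addition baseline per second over 15 to 24 s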
Condition Context: thallium flux BTC fluorescence, at 10 µM, actives lie on both sides
So basically, the class depends on measured slope, and the ranges are class 1: < 0.005; class 2: ≥ 0.005 and < 0.006; class 3: ≥ 0.006

QUERY: Please indicate the class for O=C(NC1(C(F)(F)F)C(=O)Nc2c1c(=O)[nH]c(=O)n2Cc1ccco1)C1CCCCC1 (stereo not given) based on its slope.
RESULT: class 2

QUERY: Consider C=C(c1ccc(OCCO)cc1)c1ccc(OCCO)cc1 . To which slope class does it belong?
RESULT: class 2

---

Assayed System: Voltage-gated potassium channel subunit beta-2 (Rattus norvegicus)
Measurement Description: KvBeta enzyme negative modulators, primary screen, biochemical, NADPH fluorescence (AID 622);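 further: slope of raw intensity against log time taken from 70 to 1610 s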
Condition Context: recombinant KvBeta, 4-cyanobenzaldehyde reduction, at 10 µM, stronger effect = higher value
Label class 0 if fluorescence slope falls below -0.4; label class 1 in every other case.

QUERY: Is fluorescence slope at least -0.4? Consider CC1(C)Cc2c(sc3c4nnnn4c4nnnn4c23)CO1
RESULT: class 0

QUERY: Threshold query (fluorescence slope >= -0.4) on Cc1occc1C(=O)OCC(=O)Nc1ccc(F)cc1
RESULT: class 0

QUERY: Determine whether this molecule has fluorescence slope no lower than -0.4: CCCOC(=O)CSC1=C(C#N)C(c2ccccc2OC)C(C#N)C(=O)N1 (stereo unspecified)
RESULT: class 0

QUERY: Given COC(=O)c1ccc(Nc2cc(C)nc(-c3ccccc3O)n2)cc1 , state whether its fluorescence slope is at least -0.4.
RESULT: class 1

QUERY: Can CCOC(=O)CCc1c(C)c(C#N)c2nc3ccccc3n2c1-n1ccnc1C be said to have fluorescence slope at or above -0.4?
RESULT: class 0

QUERY: Hi team, for COc1ccccc1C(=O)N1CCN(Cc2ccc3c(c2)OCO3)CC1 , is the recorded fluorescence slope at or above -0.4?
RESULT: class 1

QUERY: Kindly determine if fluorescence slope recorded for COc1ccc(C(=O)N2CCC(N3CCN(c4ccccc4)CC3)CC2)cc1OC is above or exactly -0.4.
RESULT: class 1

QUERY: Kindly determine if fluorescence slope recorded for CCOC(=O)C1/C(=N\O)CC(C)(O)C(C(=O)OCC)C1c1ccc(OC)c(OC)c1 (stereo unspecified) is above or exactly -0.4.
RESULT: class 0

---

Measurement Description: inhibitors of TNFa-induced NFkB p65 translocation, primary screen, imaging, HUVEC, MLSMR starter and 10KST1 sets (AID 438);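 further: compound added about 3h40 before a 20 min TNFalpha stimulation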
Condition Context: HUVEC TNFa-induced p65 nuclear translocation; measured here: nuclei count (cytotoxicity indicator), at 2.08 µM
Answer no (0) if cell count is under 500, and yes (1) if it is 500 or more.

QUERY: Threshold query (cell count >= 500) on CCOc1ccc(/C(O)=C2/C(=O)C(=O)N(c3nc(C)c(C)s3)C2c2ccco2)cc1 (stereo not drawn)
RESULT: no (0)

Others:
QUERY: Kindly determine if cell count recorded for O=C(O)CCN(CCC(=O)O)c1nnc(SCc2ccccc2)s1 is above or exactly 500.
RESULT: no (0)

QUERY: Assess whether reported cell count for CNc1oc(-c2ccc(Cl)cc2)nc1C#N sits at 500 or higher.
RESULT: no (0)

QUERY: Is cell count for CSC(=Nc1ccccc1)C1=C(O)COC1=O at or above 500?
RESULT: no (0)

---

Reported cell count values follow for various compounds
Measurement Description: inhibitors of TNFa-induced NFkB p65 translocation, primary screen, imaging, HUVEC, MLSMR starter and 10KST1 sets (AID 438);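 further: compound added about 3h40 before a 20 min TNFalpha stimulation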
Condition Context: HUVEC TNFa-induced p65 nuclear translocation; measured here: nuclei count (cytotoxicity indicator), at 2.08 µM
Answer with a bare number; do not write a unit.

Sample records with cell count:
QUERY: Tell me cell count reported for N#Cc1ccc(-c2cccnc2)nc1SCC(=O)Nc1sc2c(c1C#N)CCC2
RESULT: 539

QUERY: # return recorded cell count for entry CCN(CC)CCCC1(CN)OCCc2ccccc21 (stereo unspecified)
RESULT: 475

QUERY: Identify measured cell count corresponding to COc1cc(C2C(C#N)=C(N)Oc3cc(C)n(CCN4CCOCC4)c(=O)c32)cc(OC)c1OC (stereo unspecified)
RESULT: 388

QUERY: For the compound CNc1ccccc1-c1nc2ccccc2n(C)c1=O , give its reported cell count.
RESULT: 545

QUERY: Identify cell count associated with the compound COc1ccc(-c2oc3ncn4nc(COc5ccccc5)nc4c3c2-c2ccc(OC)cc2)cc1
RESULT: 621

QUERY: Please give the documented cell count of O=C(O)/C=C/c1ccc(O)c(O)c1
RESULT: 613

QUERY: Query cell count for CCN1CCN(c2nc3c(C)cccn3c(=O)c2/C=C(\C#N)S(=O)(=O)c2ccc(C)cc2)CC1
RESULT: 519

QUERY: For the compound CCC(=O)OC1=C2C(=Nc3c(c(=O)n(C)c(=O)n3C)C2c2ccccc2)c2ccccc21 (stereo unspecified) , give its reported cell count.
RESULT: 509

QUERY: Please give the documented cell count of Cc1cc(NS(=O)(=O)c2ccc(N)cc2)no1
RESULT: 614

QUERY: Item Cc1occc1C(=O)OCC(=O)Nc1ccc(F)cc1 : provide cell count
RESULT: 527

Alright, here's another compound for you.
QUERY: Give the reported value of cell count for this record: Oc1ccccc1-c1nc(NCCN2CCOCC2)c2ccccc2n1
RESULT: 268

---

Assayed System: Alpha-2C adrenergic receptor (Homo sapiens) (UniProt P18825)
Measurement Description: modulators of alpha2C/GIRK thallium flux, primary screen, cell-based, HEK293 alpha2C/GIRK1/2 (AID 624);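 further: slope of fluorescence ratio to pre-addition baseline per second over 15 to 24 s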
Condition Context: thallium flux BTC fluorescence, at 10 µM, actives lie on both sides
The source made the active and inactive calls.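 Rule for the calls: active = fluorescence slope after compound addition differing from the mean of all screened samples at 99.7% confidence, in either direction; inactive = the rest.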
A correct response names exactly one class from active, inactive

Solved entries (count: 4):
QUERY: Each compound tested received a call. Report the one for C=CCn1cnc2c(c1=O)c1nc3ccccc3nc1n2-c1ccc(Cl)cc1 .
RESULT: inactive

QUERY: So what was the verdict on O=C(c1ccc2c(c1)OCCO2)N1CCCCC1 in this test?
RESULT: inactive

QUERY: Called result for CCCCC1(C(=O)OCC)CC(CN2CCOCC2)OC1=O (configuration not stated)
RESULT: inactive

QUERY: Just curious, what result did COC(=O)CSC1=C(C#N)C(=O)NC2(CCCCC2)S1 get here?
RESULT: inactive

***
QUERY: Which outcome was entered for the compound CCOC(=O)c1c(N)sc2c1CCC1C(=O)N(C3CCCCC3)C(=O)C21 (configuration not stated) in this test?
RESULT: inactive

QUERY: Can you look up the reported call for Cn1c(-n2c(-c3ccco3)nc3ccccc3c2=O)nc2ccccc21 for me?
RESULT: inactive

QUERY: Which outcome did this test record for the compound COC(=O)c1c(C)noc1-c1cc(C)on1 ?
RESULT: inactive

QUERY: Which result was noted for this compound in the test: Cc1c(C)c2cc(Cl)c(O)c(CN3CCCCC3)c2oc1=O
RESULT: inactive

QUERY: Tell me the assay call for CCCCNC(=O)N1CCOCCOCCN(C(=O)NCCCC)CCOCC1 please.
RESULT: inactive

QUERY: Hello, I am checking results. What call was entered for O=C1OC(c2ccc(O)cc2)(c2ccc(O)cc2)c2ccccc21 ?
RESULT: inactive

QUERY: GET /call?item= COc1cc(C)nc(Oc2ccc(=O)n(C)n2)n1 returns the recorded outcome of this test.
RESULT: inactive

QUERY: Recorded call for S=c1nc(-c2ccccc2)[nH]n1-c1ccccc1 ?
RESULT: active
